Each record here notes measured IC50.
biological target: CDK9/cyclin T1 (Homo sapiens, UniProt P50750); assay: CDK9/cyclin T1 inhibition, radiometric assay; type: biochemical; conditions: read-out: CDK9/cyclin T1 Potency Grade
Sequence (P50750 whole entry): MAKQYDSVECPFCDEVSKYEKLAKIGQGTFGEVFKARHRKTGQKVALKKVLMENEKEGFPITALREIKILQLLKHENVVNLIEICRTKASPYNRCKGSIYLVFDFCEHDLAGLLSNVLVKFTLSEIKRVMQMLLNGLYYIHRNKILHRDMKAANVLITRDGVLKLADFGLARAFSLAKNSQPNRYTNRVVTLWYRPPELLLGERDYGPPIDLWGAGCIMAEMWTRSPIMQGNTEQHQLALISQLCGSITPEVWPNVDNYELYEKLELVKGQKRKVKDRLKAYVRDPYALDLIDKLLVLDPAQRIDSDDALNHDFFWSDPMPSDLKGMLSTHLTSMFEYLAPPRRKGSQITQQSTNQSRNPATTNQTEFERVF
Sequence (O60563 whole entry partner): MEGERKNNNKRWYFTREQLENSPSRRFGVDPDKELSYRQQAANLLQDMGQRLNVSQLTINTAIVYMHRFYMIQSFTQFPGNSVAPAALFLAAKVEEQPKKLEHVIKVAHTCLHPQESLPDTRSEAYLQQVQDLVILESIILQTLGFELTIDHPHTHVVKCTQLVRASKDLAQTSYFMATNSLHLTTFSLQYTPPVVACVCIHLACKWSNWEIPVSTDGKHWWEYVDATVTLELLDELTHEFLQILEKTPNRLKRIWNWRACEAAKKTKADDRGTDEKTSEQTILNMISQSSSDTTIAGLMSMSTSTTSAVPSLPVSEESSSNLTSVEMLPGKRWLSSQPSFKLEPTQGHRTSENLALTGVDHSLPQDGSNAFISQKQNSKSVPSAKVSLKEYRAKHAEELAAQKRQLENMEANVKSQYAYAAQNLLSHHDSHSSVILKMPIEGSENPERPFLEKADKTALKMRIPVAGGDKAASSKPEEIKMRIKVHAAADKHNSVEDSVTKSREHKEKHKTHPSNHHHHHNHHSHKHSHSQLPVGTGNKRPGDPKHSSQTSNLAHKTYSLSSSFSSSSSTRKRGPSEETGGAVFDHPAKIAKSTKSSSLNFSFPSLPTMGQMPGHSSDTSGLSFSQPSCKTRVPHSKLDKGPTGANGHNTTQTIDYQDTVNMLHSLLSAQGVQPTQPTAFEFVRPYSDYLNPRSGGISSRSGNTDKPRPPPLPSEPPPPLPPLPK

Sample answers from the record:
>  <compound>
CCc1cc(N[C@@H]2CC[C@@H](N)C2)n2nccc2n1

>  <IC50>
501 to 1000 nM

$$$$
>  <compound>
CC(=O)Nc1cc(N[C@@H]2CC[C@@H](N)C2)n2nccc2n1 [Compound 34, 2,2,2-trifluoroacetate]

>  <IC50>
> 1000 nM

$$$$

So what's the measured IC50 for this one? Cc1cc(N[C@H]2CC[C@H](N)C2)n2nccc2n1
501 to 1000 nM

So what's the measured IC50 for this one? Cc1cc(N[C@H]2CC[C@H](N)CC2)n2nccc2n1
501 to 1000 nM
